# Target of assay: μ-opioid receptor (Homo sapiens (Human), UniProt P35372)
# Assay details: μ-opioid receptor [35S]GTPγS functional assay, HEK-293 or CHO cells
# Assay type: biochemical
# Test parameters: HEK-293 or CHO cells; read-out: GTPγS μ EC50
Quantity name: log10(EC50) (log10 of the value in nM)

[
  {
    "Smiles input": "CN1CC[C@@]2(C)c3cc(C(N)=O)ccc3C[C@@H]1[C@@H]2N(C)C(=O)Nc1ccc(C#N)cc1",
    "log10(EC50)": 3.69
  },
  {
    "Smiles input": "CN1CC[C@@]2(C)c3cc(O)ccc3C[C@@H]1[C@H]2N(CCO)CCc1ccc(F)cc1",
    "log10(EC50)": 0.90
  },
  {
    "Smiles input": "CN1CC[C@@]2(C)c3cc(O)ccc3C[C@@H]1[C@@H]2NC(=O)Cc1ccc(S(C)(=O)=O)cc1",
    "log10(EC50)": 3.72
  },
  {
    "Smiles input": "CCCN(C(=O)Nc1ccc(C#N)cc1)[C@H]1[C@H]2Cc3ccc(O)cc3[C@]1(C)CCN2C",
    "log10(EC50)": 1.98
  },
  {
    "Smiles input": "CN1CC[C@@]2(C)c3cc(O)ccc3C[C@@H]1[C@@H]2N(C)S(=O)(=O)Cc1ccccc1",
    "log10(EC50)": 3.95
  },
  {
    "Smiles input": "CN1CC[C@@]2(C)c3cc(O)ccc3C[C@@H]1[C@@H]2N(C)CC1CCN(S(C)(=O)=O)CC1",
    "log10(EC50)": 0.74
  },
  {
    "Smiles input": "CN1CC[C@@]2(C)c3cc(O)ccc3C[C@@H]1[C@@H]2N(CCc1ccc(F)cc1)CC(=O)O",
    "log10(EC50)": 1.76
  }
]
